Test system: TK-10 renal
Test: NCI tumour cell line growth inhibition, 48 h
Recorded TGI values for a group of compounds are listed next.

compound=COc1cccc(-c2nn(-c3ccccc3)cc2-c2ccnc(NCCNS(=O)(=O)c3ccc(C(F)(F)F)cc3)c2)c1 assay_result="9.88 µM"
compound="N=c1c2c(ncn1N)Oc1c(c(-c3ccccc3)nn1-c1ccccc1)C2c1ccc(Cl)cc1 (stereo not given)" assay_result="3.47 µM"

Prompt: Form field: reported TGI of CCCCOC(=O)CN1C(=O)c2ccccc2C1=O
Response: > 100 µM

Prompt: Which value of TGI has been reported for COC(=O)CCc1ccc2c(c1)CCC2 in the records?
Response: > 100 µM

Prompt: What value of TGI has been recorded for this entry: COc1ccc(-c2oc3c(CC(=O)O)cccc3c(=O)c2OC)cc1
Response: > 100 µM

----------
Here the recorded TGI is given for each entry.
System: TK-10 renal
Test: NCI tumour cell line growth inhibition, 48 h

Prompt: Field: TGI (TK-10 renal). Entry: Cc1ccc(S(=O)(=O)Nn2c(-c3ccccc3)c(C#N)c(-c3ccc(Cl)cc3)c(C#N)c2=O)cc1
Response: > 100 µM

Prompt: TGI of CCOC(=O)C1C(=O)CC(C)(O)C(C(=O)OCC)C1c1ccc(N(C)C)cc1 (centres undefined) on TK-10 renal?
Response: > 100 µM

Prompt: Recorded TGI for COc1cc(C(=O)C/C(CCC(=O)Nc2ccccc2[N+](=O)[O-])=N\NC(=O)C(N)=O)ccc1O with TK-10 renal, please?
Response: > 100 µM

Prompt: Reported TGI for TK-10 renal, given COC(C)(C)C(O)C(O)C[C@H](C)C1CC=C2C1(C)CCC1[C@@]3(C)CCC(OC(C)=O)C(C)(C)C3CC(OC3OC(COC(C)=O)C(O)C(O)C3O)[C@@]21C (some centres undefined) ?
Response: > 10 µM

Prompt: # query: TGI | item COC1=CC(=O)c2ccc(C(C)C)cc2C1(C)C1=NC(C)(C)CO1 (centres undefined) | system: TK-10 renal
Response: > 100 µM

Prompt: TGI of c1cncc(C2c3[nH]c4ccccc4c3CCN2CCCN2CCCCC2)c1 (centres undefined) on TK-10 renal?
Response: > 100 µM

----------
TGI values, listed per item
Tested on: HT29 colon
Test: NCI tumour cell line growth inhibition, 48 h
Express it in µM; write the number only.

query_smiles=Cc1cc(N(CCOS(C)(=O)=O)CCOS(C)(=O)=O)ccc1C=Nc1ccc(-c2csc(-c3ccccc3)n2)c(Cl)c1 assay_result=31.5

Note: attention shifts to another entry.
Prompt: Hi! What's the reported TGI for CC(C)(C)CN1[C@@H]2CCCC[C@H]2N(CC(C)(C)C)P1(=O)Cc1ccccc1 on HT29 colon?
Response: 21.7

----------
Tested on: NCI-H226 lung
Test: NCI tumour cell line growth inhibition, 48 h
# reported TGI; entries follow

As a guide, the following entries are already answered.
molecule="COC(C)(C)C(O)C(O)C[C@H](C)C1CC=C2C1(C)CCC1[C@@]3(C)CCC(OC(C)=O)C(C)(C)C3CC(OC3OC(COC(C)=O)C(O)C(O)C3O)[C@@]21C (stereo partly drawn)" metric_name=TGI assay_result="> 10 µM"
molecule=Cc1cc(C)c2c(=O)cc(-c3ccc(Cl)cc3)[nH]c2n1 metric_name=TGI assay_result="> 100 µM"
molecule=CC(=O)CC(=O)N(CCN(C(=O)CC(C)=O)c1ccccc1)c1ccccc1 metric_name=TGI assay_result="> 100 µM"
molecule="COC(=O)c1ccccc1C1CN=NC12Cc1c(C)cc(C)cc1C2=O (stereo not drawn)" metric_name=TGI assay_result="> 100 µM"
molecule=O=C(NO)c1cccc(OCc2ccc(Br)cc2)c1 metric_name=TGI assay_result="27.6 µM"

Prompt: I have this molecule here, Cc1cc(Cl)nc(NC(=O)CSc2ccc(Cl)cc2)n1 , and I need its recorded TGI.
Response: > 100 µM

Prompt: Entry C/C(=C\c1ccn(-c2ccc(N)c(C(F)(F)F)c2)n1)[C@@H]1C[C@@H]2O[C@]2(C)CCC[C@H](C)[C@H](O)[C@@H](C)C(=O)C(C)(C)[C@@H](O)CC(=O)O1 has what TGI?
Response: > 32.5 µM

Prompt: Report TGI for Cc1cc(N(CCC#N)CCC#N)ccc1/C=C1/CN(N2C(=O)/C(=C/c3ccc(N(CCC#N)CCC#N)cc3C)N=C2c2ccccc2)C(c2ccccc2)=N1 please.
Response: > 100 µM

----------
System: HCC-2998 colon
Test: NCI tumour cell line growth inhibition, 48 h
Metric Name: TGI

compound=CCCCCCCCCCCCCCCCC1=CC(=O)C=C(OC)C1=O metric_name=TGI assay_result="> 100 µM"
compound=COc1ccc(-c2oc3c(CC(=O)O)cccc3c(=O)c2OC)cc1 metric_name=TGI assay_result="> 100 µM"

Prompt: TGI for COc1ccc(-c2cc(-c3ccc(Nc4nc(Nc5ccc(Cl)cc5)nc(Nc5ccc(Cl)cc5)n4)cc3)no2)cc1 ?
Response: 8.25 µM

----------
Test system: A549 NSCLC
Test: NCI tumour cell line growth inhibition, 48 h
TGI listing for selected compounds.

Guide cases for TGI, answers given:
compound="C=C(Cl)C(C)(Cl)CCC(Cl)C(C)(C)Cl (stereo not drawn)" metric_name=TGI assay_result="> 100 µM"
compound="c1cncc(C2c3[nH]c4ccccc4c3CCN2CCCN2CCCCC2)c1 (stereo not drawn)" metric_name=TGI assay_result="> 100 µM"

Now look at this entry.
Prompt: Query: TGI; subject: C[C@H]1CCC/C=C/[C@@H]2C[C@H](O)C[C@H]2[C@H](O)[C@H](S(=O)c2ccc(O)cc2)CC(=O)O1 (stereo partly drawn)
Response: > 100 µM

----------
Each item that follows carries a reported GI50.
System: EKVX NSCLC
Test: NCI tumour cell line growth inhibition, 48 h

Illustrative cases are given below, each with its answer.
molecule=C[C@H](c1ccc(Cl)cc1N)N1C(=O)c2cc(I)ccc2N(CCCN2CCN(C)CC2)C(=O)[C@@H]1c1ccc(Cl)cc1 assay_result="1.55 µM"
molecule=COc1ccc(-c2coc3ncnc(N)c23)cc1 assay_result="> 25 µM"
molecule=COc1cccc(-c2nn(-c3ccccc3)cc2-c2ccnc(NCCNS(=O)(=O)c3ccc(C(F)(F)F)cc3)c2)c1 assay_result="3.16 µM"
molecule=CCCCCCCCN(CCCCCCCC)C(=N)c1ccnc2ccccc12 assay_result="1.28 µM"
molecule=O=C1c2ccccc2C(=O)N1/N=C\c1ccc(Br)cc1 assay_result="> 100 µM"

Prompt: Given the entry O=C1C(=O)c2cc([N+](=O)[O-])ccc2-c2ccccc21 , report its measured GI50.
Response: 1.62 µM

Prompt: Look up GI50 for this molecule: NC1=NC(=O)N2CC12 (configuration not stated)
Response: 123 µM

Prompt: Looking for the measured GI50 of Cc1cc(NC(=O)c2ccc(NS(=O)(=O)CCO)cc2N2CCC3(CC2)CC3)nc(N2CCC(F)(F)CC2)n1 , can you help?
Response: 14.2 µM

Prompt: Requested field: GI50. Item: C/C(=C\c1ccn(-c2ccc(N)c(C(F)(F)F)c2)n1)[C@@H]1C[C@@H]2O[C@]2(C)CCC[C@H](C)[C@H](O)[C@@H](C)C(=O)C(C)(C)[C@@H](O)CC(=O)O1
Response: 0.344 µM

Prompt: What does the data say about its GI50? Entry: C#C[C@@]1(O)[C@@H](CO)O[C@@H](n2cc(Cl)c3c(N)ncnc32)[C@@H]1O
Response: 0.261 µM

Prompt: Please look up its GI50: CC[O-].CC[O-].[O-]c1ccccc1C=Nc1ccccc1.[O-]c1ccccc1C=Nc1ccccc1.[Ti+4]
Response: > 100 µM

Prompt: Tell me the measured GI50 of CN1CCN(C(=O)c2ccc(NC(=O)Nc3ccc(N(C)c4ccnc(Nc5ccc(CS(C)(=O)=O)cc5)n4)cc3)cc2)CC1 , please.
Response: > 25 µM

----------
Test system: COLO 205 colon
Test: NCI tumour cell line growth inhibition, 48 h; in the data active means GI50 below about 0.43 µM; inactive means the rest
Your response should consist of one outcome taken from active, inactive

Solved entries (count: 5):
compound=CS(=O)(=O)CCNCc1ccc(-c2ccc3ncnc(Nc4ccc(OCc5ccccc5)c(C(F)(F)F)c4)c3c2)o1 answer_label=inactive
compound="C[C@H]1CCC/C=C/[C@@H]2C[C@H](O)C[C@H]2[C@H](O)[C@H](S(=O)c2ccc(O)cc2)CC(=O)O1 (stereo partly drawn)" answer_label=active
compound=O=S(=O)(NCCNc1cc(-c2cn(-c3ccccc3)nc2-c2cccc(O)c2)ccn1)c1ccc(C(F)(F)F)cc1 answer_label=inactive
compound=CCc1ccc(C2=C/C(=C/c3ccc(Cl)cc3)C(=O)N2CCc2ccc(S(N)(=O)=O)cc2)cc1 answer_label=inactive
compound=O=C1C=C(Nc2ccccc2)c2ncccc2C1=O answer_label=inactive

Prompt: Would you mind telling me which call this test gave CC(=O)O[C@H](C[C@H](C(C)C)N(C)C(=O)[C@@H](NC(=O)[C@H]1CCCCN1C)C(C)C)c1nc(C(=O)N[C@@H](Cc2ccccc2)C[C@H](C)C(=O)O)c(C)s1 ?
Response: active

Prompt: Test call, this compound: C=C(C)C(=O)NC(N)=NC#N
Response: inactive

Prompt: Any idea what this test logged for CC[O-].CC[O-].[O-]c1ccccc1C=Nc1ccccc1.[O-]c1ccccc1C=Nc1ccccc1.[Ti+4] ?
Response: inactive
